Ki values for the binders below.
assayed target: SOCS2-ElonginB-ElonginC complex, wild-type (human | , UniProt O14508 32-198; Q15370 1-104; Q15369 17-112)
Sequence (O14508 32-198, chain 1 of 3): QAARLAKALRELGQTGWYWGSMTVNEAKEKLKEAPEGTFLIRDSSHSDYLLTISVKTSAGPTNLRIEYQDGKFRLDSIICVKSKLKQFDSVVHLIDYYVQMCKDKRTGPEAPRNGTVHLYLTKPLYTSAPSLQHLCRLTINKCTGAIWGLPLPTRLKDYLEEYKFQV
Sequence (Q15370 1-104, chain 2 of 3): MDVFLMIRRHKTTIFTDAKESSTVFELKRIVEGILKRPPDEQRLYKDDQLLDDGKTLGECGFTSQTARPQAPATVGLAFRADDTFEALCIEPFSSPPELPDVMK
Sequence (Q15369 17-112, chain 3 of 3): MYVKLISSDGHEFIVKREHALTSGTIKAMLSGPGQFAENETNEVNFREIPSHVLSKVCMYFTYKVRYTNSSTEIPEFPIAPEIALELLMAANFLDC
assay text: 19F ligand-observed CPMG NMR displacement assay; peptide (GHR 10 μM, EpoR 50 μM) displaces the fluorinated pY analog spy molecule 3 (100 μM) from SBC (5 μM); 20 mM HEPES pH 8, 50 mM NaCl, 1 mM DTT, 20% D2O, 298 K
applied conditions: both partners purified
Where no end group is shown, it is not given here. [ ]: non-standard residue; d: D form. pY = N[C@@H](Cc1ccc(OP(=O)(O)O)cc1)C(=O)O
assay readout: Ki (µM)

ASFE[pY]TILDPA-NH2 (N-terminus assumed; SMILES CC[C@H](C)[C@H](NC(=O)[C@@H](NC(=O)[C@H](Cc1ccc(OP(=O)(O)O)cc1)NC(=O)[C@H](CCC(=O)O)NC(=O)[C@H](Cc1ccccc1)NC(=O)[C@H](CO)NC(=O)[C@H](C)N)[C@@H](C)O)C(=O)N[C@@H](CC(C)C)C(=O)N[C@@H](CC(=O)O)C(=O)N1CCC[C@H]1C(=O)N[C@@H](C)C(N)=O) [EpoR_pY426 peptide, alanine at pY(+6)] ... 11.3
ASFE[pY]AILDPS-NH2 (N-terminus assumed; SMILES CC[C@H](C)[C@H](NC(=O)[C@H](C)NC(=O)[C@H](Cc1ccc(OP(=O)(O)O)cc1)NC(=O)[C@H](CCC(=O)O)NC(=O)[C@H](Cc1ccccc1)NC(=O)[C@H](CO)NC(=O)[C@H](C)N)C(=O)N[C@@H](CC(C)C)C(=O)N[C@@H](CC(=O)O)C(=O)N1CCC[C@H]1C(=O)N[C@@H](CO)C(N)=O) [EpoR_pY426 peptide, alanine at pY(+1)] ... 10.3
PYPD[pY]TSIHIV-NH2 [GHR_pY595 peptide V(−3)Y] ... 3.3
